Known GI50 of a selection of compounds
Tested on: U-251
PROTOCOL DETAILS: NCI tumour cell line growth inhibition, 48 h
Active and inactive are the calls of the source. Cut-off read from the data, not from the text of the source: active = GI50 up to about 1.1 µM and inactive = higher.
ATTRIBUTE MEASURED: GI50

| COMPOUND | SUBJECT OF TEST | RESULT VALUE |
| --- | --- | --- |
| CC(C)OP(=O)(OC(C)C)C1=NN(c2ccc([N+](=O)[O-])cc2)C(P(=O)(OC(C)C)OC(C)C)=NN1c1ccc([N+](=O)[O-])cc1 | U-251 | 42.7 µM (inactive) |
| O=C(CNC(=O)OCc1ccccc1)NCCCCC(NC(=O)OCc1ccccc1)C(=O)NC(CCCCNC(=O)CNC(=O)OCc1ccccc1)C(=O)OCc1ccccc1 (stereo not drawn) | U-251 | > 62.5 µM (inactive) |
| COc1cc([C@@H]2c3cc4c(cc3[C@@H](Nc3ccc(C(=O)N[C@H]5CCc6cc(OC)c(OC)c(OC)c6-c6ccc(SC)c(=O)cc65)cc3)[C@H]3COC(=O)[C@H]23)OCO4)cc(OC)c1O | U-251 | < 0.01 µM (active) |

###

System: KM12
PROTOCOL DETAILS: NCI tumour cell line growth inhibition, 48 h
Active and inactive are the calls of the source. Cut-off read from the data, not from the text of the source: active = GI50 up to about 1.1 µM and inactive = higher.
Outcome codes: label 1 = active, label 0 = inactive

| COMPOUND | CLASS |
| --- | --- |
| CCOC(=O)COc1cc(-c2ccccc2)nc2cc(F)ccc12 | label 0 |
| Nc1ncc2c(n1)-c1ccccc1OC2N1CCCCC1 (stereo not given) | label 0 |
| CN(C)C(=O)N(CCCl)N=O | label 0 |
| O=S(=O)(O)c1ccc(/N=N/c2c(O)ccc3ccccc23)cc1 | label 0 |
| O=C1c2cc([N+](=O)[O-])cc3cc([N+](=O)[O-])cc(c23)C(=O)N1CCCNCCNCCCN1C(=O)c2cc([N+](=O)[O-])cc3cc([N+](=O)[O-])cc(c23)C1=O | label 1 |
| CSc1ccc(/C=C2\N=C(c3ccccc3)N(NC(=O)c3c(Cl)c(Cl)c(Cl)c(Cl)c3-c3nc4ccccc4[nH]3)C2=O)cc1 | label 0 |
| CCN(CC)C(=S)N/N=C1\C(=O)Nc2ccccc21 | label 1 |
| O=C(/C=C/c1ccc(-c2ccccc2)cc1)NCc1ccc(C(=O)NCCc2c[nH]c3ccccc23)cc1 | label 0 |
| C[n+]1c2ccccc2c(NC(CCCNC(=N)N)C(=O)O)c2ccccc21 (stereo not given) | label 0 |
| CN(C)c1cccc(NC2=NCCO2)c1 | label 0 |
| CC(C)OP(=O)(OC(C)C)C1=NN(c2ccc([N+](=O)[O-])cc2)C(P(=O)(OC(C)C)OC(C)C)=NN1c1ccc([N+](=O)[O-])cc1 | label 0 |
| CC1(O)CC(=O)c2c(cc3ccc(-c4c5c(c(O)c6c(O)cccc46)C(=O)CC(C)(O)C5)c(O)c3c2O)C1 (stereo not given) | label 1 |
| Cc1cccc(N(CCC#N)S(=O)(=O)c2ccccc2)c1 | label 0 |
| NCCCCNCCCNC(=O)c1nc(-c2csc(CCN)n2)sc1Cl | label 0 |
| COC(=O)c1ccccc1CC1Cc2cc3c(cc2C1)CCC3 | label 0 |
| O=S1OC2(c3ccccc3-c3ccccc32)c2ccccc21 (stereo not given) | label 0 |
| CO/N=C1/C(n2[nH]c(=O)n(-c3ccccc3)c2=O)C2C=CC1n1c(=O)n(-c3ccccc3)c(=O)n12 (stereo not given) | label 0 |
| COC(=O)c1ccc2cc(O)c(O)cc2c1 | label 0 |
| COC(=O)C1=NN2c3ccccc3C(=O)OCCC2C1 (stereo not given) | label 0 |
| O=C(OCc1ccccc1)C1(N2CN(C3(C(=O)OCc4ccccc4)CCCC3)CN(C3(C(=O)OCc4ccccc4)CCCC3)C2)CCCC1 | label 0 |
